Reference for the values: PubChem BioAssay (NCI)

# System: ACHN renal
# Test Protocol: NCI tumour cell line growth inhibition, 48 h
Observation Type: TGI

Before answering, review these 2 worked examples.
c1ccc(-c2nnc(-c3ccccn3)s2)nc1 = > 100 µM
CC(=O)CCn1c(=S)sc2ccccc21 = > 100 µM

Now take the following molecule into account.
INPUT: Dear colleague, I am looking for the recorded TGI of the following molecule: "CC1(C)CC(=O)C(C=NC(=S)c2ccccc2)=C(O)C1"
OUTPUT: > 100 µM

###

# System: HS 578T breast
# Test Protocol: NCI tumour cell line growth inhibition, 48 h
Below: a set of entries, each annotated with reported TGI.

# count of solved cases: 4
Nc1nn2cc(F)cnc2c1C(=O)Nc1cncc(F)c1N1CCC(C(=O)N2CCN(C3COC3)CC2)CC1 = 1.48 µM
O=[N+]([O-])c1ccc(CN(CCCl)OCCCl)cc1 = > 100 µM
NC(CCCCCP(=O)(c1ccccc1)C1C=CC=CC1)C(=O)O (centres undefined) = > 100 µM
COc1cc(-c2oc(=O)ccc2C#Cc2ccccn2)cc(OC)c1OC = > 24 µM

Shift focus to the following entry.
INPUT: Find the recorded TGI belonging to O=[N+]([O-])C[C@@]12O[C@]3(O)C4C5CC(C6C5C3C61)C42 (some centres undefined) and report it.
OUTPUT: > 100 µM

###

# Test system: MCF7 breast
# Test Protocol: NCI tumour cell line growth inhibition, 48 h
Observation Type: TGI

Reference set, count: 3
CCOC(=O)NC(Nc1ccc(C)cc1)(C(F)(F)F)C(F)(F)F = > 100 µM
CN1CCc2c([nH]c3ccccc23)C1 = > 100 µM
CCOC(=O)C1=CN(C)C=C(C(=O)OCC)C1c1cc(Br)c(OCC)c(OC)c1 = > 100 µM

INPUT: // lookup TGI for "C(=NCCN1CCOCC1)=NC1CCCCC1"
OUTPUT: > 100 µM

INPUT: Query: TGI; subject: "CSc1nc(=O)n(CCC#N)nc1SC"
OUTPUT: 9.04 µM

INPUT: Dear colleague, I am looking for the recorded TGI of the following compound: CC(C)Cc1ccc(C(C)C(=O)N2CCN(/C=C/c3ccccc3)CC2)cc1 (centres undefined)
OUTPUT: 33.7 µM

INPUT: Need TGI of "O=C(/C=C/c1ccccc1)Oc1cccc(O)c1" , thanks.
OUTPUT: > 100 µM

INPUT: // lookup TGI for CCN(CC)CCC(CNc1ccnc2cc(Cl)ccc12)c1ccc(Cl)cc1 (centres undefined)
OUTPUT: 2.32 µM

INPUT: Could you tell me which TGI is on file for "O=c1oc2ccccc2cc1-c1cc2ccccn2c1" ?
OUTPUT: > 100 µM

###

# Tested on: M14 melanoma
# Test Protocol: NCI tumour cell line growth inhibition, 48 h
Observation Type: TGI

CC12C/C(=C\c3ccccc3)C(=O)C3C1CCCC32 = > 100 µM
Oc1ccc(Nc2ncnc3c2sc2ncccc23)cc1 = 0.0551 µM

INPUT: # input molecule: "O=C(/C=C/c1ccccc1)Oc1cccc(O)c1" ; wanted: its TGI
OUTPUT: > 100 µM

INPUT: # get_value(readout='TGI', item= COC(=O)C1c2cc3c(cc2C(OC2OC(C)C(OC)C(C)(OC)C2OC)CC1(C)O)C(=O)c1c(O)cc2c(c1C3=O)OC1OC2(C)C(O)C([N+](C)(C)[O-])C1O (stereo unspecified) )
OUTPUT: 3.64 µM

INPUT: What value of TGI has been recorded for this entry: "CCOC(=O)NC(Nc1ccc(C)cc1)(C(F)(F)F)C(F)(F)F"
OUTPUT: > 100 µM

INPUT: Suppose we examine the molecule "c1ccc(-c2nnc(-c3ccccn3)s2)nc1" ; what TGI value has been reported?
OUTPUT: > 100 µM
